- System: P. falciparum stage V gametocytes
- Design: BacTiter-Glo ATP luminescence viability of purified stage V gametocytes in 384-well plates, per cent inhibition versus DMSO
- CONDITION SUMMARY: 48 h, 5 µM; inhibitor
The campaign covered roughly 13,000 compounds. About 3,200 (25%) showed an effect of 50% or more. The list shows a part of the results.
Consider the following compounds; for each one, report its % Inhibition.
Lab book: enter the figure in %, no units written.

Data request, read-out % Inhibition, for O=[N+]([O-])c1ccc(C2=NN(S(=O)(=O)c3c(Cl)cc(Cl)cc3Cl)CCCC2)cc1
-33.18

Same for O=C(Nc1cccc(-c2ccc(-c3nc4cc(C(F)(F)F)ccc4[nH]3)s2)c1)c1cccnc1
0.1958

Now the compound Cc1ccc2c(Cl)c(C(=O)N3CC(C)OC(C)C3)sc2c1 (stereo not shown)
35.35

Do the same for CCCN1CCC2(CC1)NC(C(=O)NCCC(C)C)Cc1c2[nH]c2cc(Cl)ccc12 (stereo not shown) please
-32.44

----------
Hi there, I'd appreciate the recorded % Inhibition for every entry that follows.
- Test system: P. falciparum stage V gametocytes
- Set-up: BacTiter-Glo ATP luminescence viability of purified stage V gametocytes in 384-well plates, per cent inhibition versus DMSO
- CONDITION SUMMARY: 48 h, 5 µM; inhibitor
Hit rate of the full screen: of about 13,000 compounds, about 3,200 (25%) showed an effect of 50% or more. The list shows a part of the results.
Give the value, in units of %, as a plain number.

Bench note: what % Inhibition did O=C(Nc1ccc(F)cc1)N1CCCN(c2ccnc3cc(Cl)ccc23)CC1 show?
-23.79

And what about the molecule Cc1cc(NC2CCN(CC3CCCCC3)CC2)nc(Nc2ccccc2Cl)n1 ?
-7.805

Request: Cn1nc2ccc3ccccc3c2nc1=N
93.18

Cool, now COc1cccc(C(=O)OC2=C3CCC(=O)C3(C)CCC2=O)c1 (stereo not drawn)
39.81

Next up: COc1ccc(CN2CCC(CN3CC4(OC3=O)c3ccccc3-c3ccccc34)C2)c(O)c1 (stereo not drawn)
30.12

Cool, now O=C(/C=C/c1ccc(Cl)c(Cl)c1)NC1CCC(CN2CCC(c3nc4ccc(O)cc4[nH]3)CC2)CC1 (stereo not drawn)
3.463

Now consider Cc1cccc2nc(-c3ccc(-c4ccc(C(=O)NCCc5cn(C)cn5)cc4)s3)[nH]c12 .
-4.132

What do you get for Cn1c(=N)cc(-c2cccc(I)c2)c2c(=O)[nH]c(N)nc21 ?
7.838

Next up: Cc1cc(Cl)ccc1N(Cc1ccccc1)c1ccnc(Cl)n1
-10.33

----------
- Tested on: P. falciparum stage V gametocytes
- Set-up: BacTiter-Glo ATP luminescence viability of purified stage V gametocytes in 384-well plates, per cent inhibition versus DMSO
- CONDITION SUMMARY: 48 h, 5 µM; inhibitor
About 3,200 (25%) of roughly 13,000 compounds showed an effect of 50% or more. The list shows a part of the results.
VALUE TYPE: % Inhibition (%)
Express it in %; write the number only.

May I ask what % Inhibition has been recorded for Cc1ccc2[nH]c3c(NCCCN4CCOCC4)ncnc3c2c1 [TCMDC-124068] ?
-37.8

And what about the compound CCCCCCCN1CC[C@@H](CCCc2ccnc3ccc(OC)cc23)[C@@H](CNC)C1 [TCMDC-139875] ?
105.4

Now the same for COc1cccc(C=Cc2nc(=O)c3ccccc3o2)c1OC [TCMDC-124577]
34.84

// repeat for Cc1cc(C2CCN(CCCCNC(=O)c3ccc(NC(=O)c4ccc(Cl)cc4)cc3)CC2)c(C)cc1OC(C)C [TCMDC-138309] and report
96.15

Now the compound CCCN1CCC(c2c[nH]c3ccc(NC(=O)Nc4cccc(Cl)c4Cl)cc23)CC1 [TCMDC-139182]
-83.82

Try this compound too: O=C(Nc1nc(-c2ccccn2)cs1)c1ccc(Br)s1 [TCMDC-123868]
65.77

Next: COc1cc(C)ccc1N1CCN(CCCCNC(=O)c2ccc(NC(=O)c3ccc(Cl)cc3)cc2)CC1 [TCMDC-138374]
-7.22

Now the compound CCCCCc1cc(O)c2c3c(c(=O)oc2c1)CN(C)CC3 [TCMDC-124170]
9.829

Entry to check: CCCCCCCCCN1CC[C@@H](CCCc2ccnc3ccc(O)cc23)[C@@H](CC)C1 [TCMDC-131442]
46.81

Further, for Cc1ccc(S(=O)(=O)c2nc(S(=O)(=O)c3ccccc3)sc2NCC2CCCO2)cc1 (stereo not shown) [TCMDC-124749] ?
4.322

Try this compound too: Cc1cc(C2CCN(CCCCNC(=O)c3ccc(NC(=O)c4ccc(Cl)cc4)cc3)CC2)c(C)cc1OCc1ccncc1 [TCMDC-138308]
71.5

What about this compound? CCCCNc1ccc(C(=O)NC2CCN(C[C@H](O)c3ccnc4ccc(OC)cc34)CC2)cc1 [TCMDC-141038]
-7.518

One more compound: COc1cc(OC)cc(C(=O)Nc2nc(-c3ccccn3)cs2)c1 [TCMDC-125345]
25.53

Follow-up entry: CCCc1ccc(NC(=O)c2ccc(CN3CCCN(Cc4cccc(O)c4)CC3)cc2)cc1 [TCMDC-136421]
2.458

O=C(Nc1cccc(-c2csc(-c3ccccc3)n2)c1)c1cccs1 [TCMDC-123904] , same question.
22.98

Query CCOc1cc(C)c(C2CCN(CCCCNC(=O)c3ccc(NC(=O)c4ccc(Cl)cc4)cc3)CC2)cc1C [TCMDC-138282] next
41.56

Param item: COc1ccc2nccc([C@@H](O)CN3CCC(NC(=O)c4cc5c(F)cc(F)cc5[nH]4)CC3)c2c1 [TCMDC-140781]
-8.295

For O=C(Cc1ccccc1)NC(CCN1CCC(N(C2CC2)S(=O)(=O)c2cccc(C(F)(F)F)c2)CC1)c1ccc(Cl)c(Cl)c1 (stereo not shown) [TCMDC-141710] then?
20.7

Field entry: CCc1sc(CN(CCCNc2cc(=O)c3ccccc3[nH]2)Cc2sc(CC)c(Br)c2-c2ccsc2)c(-c2ccsc2)c1Br [TCMDC-140753]
49.24

# iterate: CCCCCCCN1CC[C@@H](C[C@H](N)Cc2ccnc3ccc(OC)cc23)[C@@H](CC)C1 [TCMDC-139827]
11.08

Then what about the compound O=C(Nc1nc(-c2cc(F)ccc2F)cs1)c1cncc(Br)c1 [TCMDC-123613] ?
-58.06

Also, CC(C)(C)Oc1ccc(C[C@@H]2NC3(C(=O)N(Cc4ccc(Cl)c(Cl)c4)c4ccccc43)C3C(=O)N(c4ccc(Br)cc4)C(=O)C32)cc1 (stereo partly shown) [TCMDC-139775] please.
-22.32

CCCCCCCN1CC[C@@H](CCCc2ccnc3ccc(OC)cc23)[C@@H](CCN)C1 [TCMDC-139278] ?
113.6

Please do the same for CN(Cc1ccccc1)C1CCN(CCc2c[nH]c3ccc(F)cc23)CC1 [TCMDC-131970] as well.
10.21

What do you get for CC1Cc2ccccc2N1S(=O)(=O)c1cccc(C(=O)Nc2nc(-c3ccccn3)cs2)c1 (stereo not shown) [TCMDC-124559] ?
76.73

And CCOc1ccc(OCC)c(N2CCN(CCCCNC(=O)c3ccc(NC(=O)c4ccc(Cl)cc4)cc3)CC2)c1 [TCMDC-138224] ?
-9.659

Also, CN(C)CCOc1ccc(N2CCN(CCCCNC(=O)c3ccc(/C=C/c4cc(Cl)cc(Cl)c4)cc3)CC2)cc1 [TCMDC-138290] please.
45.55

Please answer likewise for CC(=O)Nc1csc(-c2cnc(/C=C(\C)C[C@@H]3OC[C@H](C[C@@H]4O[C@H]4[C@@H](C)[C@H](C)O)[C@@H](O)[C@H]3O)o2)c1 [TCMDC-131575]
0.669

Query CC(=O)c1c[nH]c2ccc(/C=C/C(=O)NC3CCC(CCN4CCc5ccc(C#N)cc5CC4)CC3)cc12 (stereo not shown) [TCMDC-139781] next
8.041

Entry to check: Fc1ccc2[nH]cc(CCN3CCC(CNCc4ccccc4)CC3)c2c1 [TCMDC-131984]
53.36

And Cc1cc(C2CCN(CCCCNC(=O)c3ccc(NC(=O)c4ccc(Cl)cc4)cc3)CC2)c(C)cc1OCc1cccnc1 [TCMDC-138318] ?
-16.74
